tested on: THRa homodimer (NR concentration 90 nM); test: PBM binding z-score (relative to random genomic background probes); higher = stronger binding; sequences stand for … in GC…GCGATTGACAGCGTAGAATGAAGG
Measured PBM binding z-score, listed per entry.
assay-metric: PBM binding z-score

{"chain-sequence": "TGAATGAGGTTAAAGAACAGGGAACGTGGCGTCG", "measured-number": 0.34}
{"chain-sequence": "AGTGAAAGTTCATCTAGGTAACGTAAGATATGCT", "measured-number": 0.263}
{"chain-sequence": "TCATAGAGGTAAACAGGTGAAAGTCCGTAAGTTA", "measured-number": -0.0526}
{"chain-sequence": "CCTACTGGGCCTCGAAAGGTCATTGATTCAGTGA", "measured-number": 0.721}
{"chain-sequence": "TAGCCTAGGTCATGGGGCAGTATACCACGCGAAC", "measured-number": 1.44}
{"chain-sequence": "TCTTGTAGATCAATAGAGGTTAAGTAAGTGCGCT", "measured-number": -0.295}
{"chain-sequence": "GTACCACGGTGAATAGGTCGTTGATGAGTAGGCG", "measured-number": -0.565}
{"chain-sequence": "ACTAGTTGGTCCGCTGAGGTCACACACAATTCGG", "measured-number": 5.42}
{"chain-sequence": "TCTAGTTGGTCACGGAGGTCACAGACGACGGGTA", "measured-number": 2.35}
{"chain-sequence": "TAGCCTAGGTCATGCTGGCCAGTATAGTGTCGGC", "measured-number": 0.898}
{"chain-sequence": "CCTACTGGGCCACGGAAGGTCATTGATTCAGTGA", "measured-number": 0.727}
{"chain-sequence": "CGTCAAAGTACAACTAAGGTAACGTAAAGCACGC", "measured-number": 1.62}
{"chain-sequence": "ATCGAAAGGTCGAGGTGAGTTTAGAGAAAGGGAA", "measured-number": 0.695}
{"chain-sequence": "ACTATTAGTTGACTTAGGACAACCGATACGACGC", "measured-number": 1.88}
{"chain-sequence": "CCTACTGGGCAATTCAGAGGTCATTGATCATATG", "measured-number": 1.16}
{"chain-sequence": "GCTCCTAGGTCAACTGATGGTCAGCTAAAGCTCG", "measured-number": 1.7}
{"chain-sequence": "CCTTACGGGTCAAGGTTATAGCGCGGGTGGTACG", "measured-number": 0.728}
{"chain-sequence": "TCATATAGGTAATGCAGGTGAAAGTCGGCATCTA", "measured-number": 0.297}
{"chain-sequence": "GCTTGTAGATTAAGGTTAAGAAAGACTAAGCTAA", "measured-number": 0.778}
{"chain-sequence": "TCTTGTAGATTAACAGGAGGTTAAGAAAGATCGA", "measured-number": -0.287}
{"chain-sequence": "CCTACTGGGCCATTCAGAGGTCATTGACCATATG", "measured-number": 1.45}
{"chain-sequence": "TCGAGTAGGTTTGTCGGGGCATTCAGCCAACATA", "measured-number": 0.392}
{"chain-sequence": "TCGAGTAGCTTACCAATGGGGCATTCAGCTTTCT", "measured-number": -0.855}
{"chain-sequence": "CCTGCTAGGTCAACGGTCAGCTAAAGCAGCTCGC", "measured-number": 0.878}
{"chain-sequence": "ACTAGCAGGCCAAGTTTCGGTCACTCAAACAAAG", "measured-number": 0.212}
{"chain-sequence": "CTCGCAAGGTCGGTTGAGGTGAGTATACGGATAA", "measured-number": 1.75}
{"chain-sequence": "CGAACGAGGGCATGAGTGGATAGCAAATGCCGAT", "measured-number": -0.129}
{"chain-sequence": "CTCGAAAGGTCGGTTGATGTGAGTATACGGATAA", "measured-number": -0.0197}
{"chain-sequence": "CCTAGCAGGCCAATCTGGGTCATTCAAGGCTTGA", "measured-number": 0.0402}
{"chain-sequence": "CCAGACGGGTGAAAGGTAACTCAGTCTGGTACGC", "measured-number": -0.444}
{"chain-sequence": "CGTCAAAGATCAACTAAGGTAACGTAAAGCACGC", "measured-number": 1.79}
{"chain-sequence": "TATTGTAGATCAACAGGAGGTTAAGAAAGATCGA", "measured-number": -0.471}
{"chain-sequence": "ACAGACAGGTTATGAAGGTAACTCAGGCTATCAT", "measured-number": 0.368}
{"chain-sequence": "ATCTCTAGGTAACCAAGGTCAGTGAATGCCGAAC", "measured-number": 2.53}
{"chain-sequence": "ACTAGCAGGCCAAGGCTCACTCAAGATTAGTCCG", "measured-number": -0.144}
{"chain-sequence": "TCATATAGGTAAAAGGTGAATGTCGGTGTGGTAA", "measured-number": 0.686}
{"chain-sequence": "GCATATAGGTAATACAAGGGGAAAGTCCGATTGT", "measured-number": -0.473}
{"chain-sequence": "GCGATTGGGGCAAAGCAGGTTACCATAAGGTTGG", "measured-number": 0.281}
{"chain-sequence": "AAAATGAGGTTATTAAGATCAGGGAATTGCGGTC", "measured-number": 0.636}
{"chain-sequence": "CTCGAAAGGTCGTGCTCAGGTAAGTATACCAAAC", "measured-number": 0.655}
{"chain-sequence": "CGAACGAGGGCATGAGTTGATCGCAAATGCCGAT", "measured-number": -0.361}
{"chain-sequence": "TCTTGGAGATCAAGCAGGTTAAGAAAGCCTGAGT", "measured-number": -0.604}
{"chain-sequence": "GGAACAAGGGCAAGTTGATAGCAGAGTTTGATGG", "measured-number": 0.372}
{"chain-sequence": "CATACAGGGTCAGCTAGGCCAGAGAAGGGACGGC", "measured-number": 0.568}
{"chain-sequence": "CCAGACAGGTGAGAAGGTAACTCACCCTCGATTA", "measured-number": 0.193}
{"chain-sequence": "TCGAGTAGGTTACCGATGGGGCATTCAGCTTTCT", "measured-number": -0.771}
{"chain-sequence": "TCATAGAGGTAAAGGTGAAAGTCGAACGATATGA", "measured-number": -0.473}
{"chain-sequence": "TTATCAAGGTGAGCTGAGGTCGTTGATCCAACTC", "measured-number": 2.47}
{"chain-sequence": "ACTCACGGGTCAACGAGGTTATAGCACGCGTATA", "measured-number": 1.03}
{"chain-sequence": "GATACAGGGTCAAGACCAGAGTACGCGTATTGAT", "measured-number": 0.503}
{"chain-sequence": "AGAACGAGGGCAGGCTGAGTTGATAGCAGAGTAG", "measured-number": -0.552}
